These data points were gathered from PubChem BioAssay (Tox21).

Assay info: qHTS assay to identify small molecule agonists of the sonic hedgehog signaling (Shh) pathway (AID 1259368);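 further: NIH/3T3-derived 3T3Gli1-Luc cells carrying a stable Gli1-driven firefly luciferase reporter; nearly all actives have a fitted effect of over 15% in size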
Condition label: NIH/3T3 Gli1-Luc reporter, luciferase, 24 h; series mostly up to 92.4 µM
Activity calls are given as the source filed them. The call rests on the fitted dose curve.
Reported property: activity change

[
  {
    "Compound": "Cc1ccc(CCn2c3c(c4cc(Cl)ccc42)CN(C)CC3)cn1",
    "Result value": "inactive"
  },
  {
    "Compound": "CC(C)=CCCC(C)CCOC(=O)C(C)C (configuration not stated)",
    "Result value": "inactive"
  },
  {
    "Compound": "CC1=C(/C=C/C(C)=C/C=C/C(C)=C/C(=O)Nc2ccc(O)cc2)C(C)(C)CCC1",
    "Result value": "inactive"
  },
  {
    "Compound": "CCCCCCCCCCCCCOP(=O)(O)O",
    "Result value": "inactive"
  },
  {
    "Compound": "Cc1cc(Nc2ccc(O)cc2)ccc1N",
    "Result value": "inactive"
  },
  {
    "Compound": "Cc1c(-c2ccc(O)cc2)n(Cc2ccc(OCCN3CCCCCC3)cc2)c2ccc(O)cc12",
    "Result value": "inactive"
  },
  {
    "Compound": "CC(C)(C)CC(C)(C)c1ccccc1O",
    "Result value": "inactive"
  },
  {
    "Compound": "COc1cccc(OC)c1O",
    "Result value": "inactive"
  },
  {
    "Compound": "CC(C)C(=O)OCc1ccccc1",
    "Result value": "inactive"
  },
  {
    "Compound": "Cc1ccc(-n2[nH]c(C)c(N=Nc3cccc(-c4cccc(C(=O)O)c4)c3O)c2=O)cc1C",
    "Result value": "inactive"
  },
  {
    "Compound": "C=CC(=O)OCCC#N",
    "Result value": "inactive"
  },
  {
    "Compound": "CN(C)c1ccc(N=Nc2ccccc2C(=O)O)cc1",
    "Result value": "inactive"
  },
  {
    "Compound": "C1CC(COCC2CO2)CCC1COCC1CO1 (configuration not stated)",
    "Result value": "inactive"
  },
  {
    "Compound": "Cc1oc(-c2ccccc2)nc1CCOc1ccc(C[C@H](Nc2ccccc2C(=O)c2ccccc2)C(=O)O)cc1",
    "Result value": "inactive"
  },
  {
    "Compound": "Cn1cccc1",
    "Result value": "inactive"
  },
  {
    "Compound": "CC1=CP(=O)(c2ccccc2)CC1 (configuration not stated)",
    "Result value": "inactive"
  },
  {
    "Compound": "Cc1ccc(O)cn1",
    "Result value": "inactive"
  },
  {
    "Compound": "CC(=O)C=O",
    "Result value": "inactive"
  },
  {
    "Compound": "CC(=O)O[C@@H]1C[C@@H]2CC[C@@]1(C)C2(C)C",
    "Result value": "inactive"
  },
  {
    "Compound": "Cc1ccc2ccc3cccc4ccc1c2c34",
    "Result value": "inactive"
  },
  {
    "Compound": "Brc1ccccc1-c1ccccc1",
    "Result value": "inactive"
  },
  {
    "Compound": "CCCC(O)C(O)CO (configuration not stated)",
    "Result value": "inactive"
  },
  {
    "Compound": "CCOC(OCC)C(=O)c1ccccc1",
    "Result value": "inactive"
  },
  {
    "Compound": "CCCCCCCCCCCCCC[n+]1ccccc1",
    "Result value": "inactive"
  },
  {
    "Compound": "CCCCCCCCCCCCN(CCO)CCO",
    "Result value": "inactive"
  },
  {
    "Compound": "CCCCCCCCCCc1ccccc1",
    "Result value": "inactive"
  },
  {
    "Compound": "CCC(C)c1ccccc1 (configuration not stated)",
    "Result value": "inactive"
  },
  {
    "Compound": "Cc1cc(C)c(C=O)c(C)c1",
    "Result value": "inactive"
  },
  {
    "Compound": "C=C1C(C)(C)[C@@]2(Cl)C(Cl)[C@]1(Cl)C(Cl)(Cl)C2(Cl)Cl (some centres not stated)",
    "Result value": "inactive"
  },
  {
    "Compound": "O=C(O)c1cccc(Cl)n1",
    "Result value": "inactive"
  },
  {
    "Compound": "SCCCCCCCCS",
    "Result value": "inactive"
  },
  {
    "Compound": "CN(Cc1cc(Br)cc(Br)c1N)C1CCCCC1",
    "Result value": "inactive"
  },
  {
    "Compound": "O=C[C@H](O)[C@H](O)[C@H](O)CO",
    "Result value": "inactive"
  },
  {
    "Compound": "CC1(C)C(=O)N(CO)C(=O)N1CO",
    "Result value": "inactive"
  },
  {
    "Compound": "CCCCCCCCC(C)=O",
    "Result value": "inactive"
  },
  {
    "Compound": "CC(C)(c1cc(Br)c(OCCO)c(Br)c1)c1cc(Br)c(OCCO)c(Br)c1",
    "Result value": "inactive"
  },
  {
    "Compound": "C=CCCCCCCC=C",
    "Result value": "inactive"
  },
  {
    "Compound": "CCCCCCCOC(=O)c1ccccc1C(=O)OCCCCCCC",
    "Result value": "inactive"
  },
  {
    "Compound": "CCc1cccc(CC)c1NC(=O)C(=O)O",
    "Result value": "inactive"
  },
  {
    "Compound": "O[C@@H](c1cc(C(F)(F)F)nc2c(C(F)(F)F)cccc12)[C@H]1CCCCN1",
    "Result value": "inactive"
  },
  {
    "Compound": "Cc1ccc(N)cc1O",
    "Result value": "inactive"
  },
  {
    "Compound": "CCO[Si](C)(C)OCC",
    "Result value": "inactive"
  },
  {
    "Compound": "Cc1cc(=O)[nH]c(=O)[nH]1",
    "Result value": "inactive"
  },
  {
    "Compound": "CS(C)(=O)=O",
    "Result value": "inactive"
  },
  {
    "Compound": "CCCCN(C)C",
    "Result value": "inactive"
  },
  {
    "Compound": "C=C[C@](C)(O)CC[C@@H]1[C@@]2(C)CCCC(C)(C)[C@@H]2CC[C@@]1(C)O",
    "Result value": "inactive"
  },
  {
    "Compound": "CCCCCCCCCCCCCc1ccccc1",
    "Result value": "inactive"
  },
  {
    "Compound": "CNC(=S)NN",
    "Result value": "inactive"
  },
  {
    "Compound": "O=C(O)Cc1ccc(OCCNC[C@H](O)c2ccccc2)cc1",
    "Result value": "inactive"
  },
  {
    "Compound": "CC(=O)Oc1ccc(C2(c3ccc(OC(C)=O)cc3)C(=O)Nc3ccccc32)cc1",
    "Result value": "inactive"
  },
  {
    "Compound": "CCCCCCCCCCCCCCNCCO",
    "Result value": "inactive"
  },
  {
    "Compound": "CC[N+](CC)(CC)Cc1ccccc1",
    "Result value": "inactive"
  },
  {
    "Compound": "CCOC(=O)N1CCC(=C2c3ccc(Cl)cc3CCc3cccnc32)CC1",
    "Result value": "inactive"
  },
  {
    "Compound": "C=C(C)C(=O)OCCC[Si](Cl)(Cl)Cl",
    "Result value": "inactive"
  },
  {
    "Compound": "C=CC(=O)OCCN(CC)CC",
    "Result value": "inactive"
  },
  {
    "Compound": "CC1CCCCN1CCCOC(=O)c1ccc(OC2CCCCC2)cc1 (configuration not stated)",
    "Result value": "inactive"
  },
  {
    "Compound": "CCCCCCCC/C=C\\CCCCCCCC(=O)OCCOC(=O)CCCCCCC/C=C\\CCCCCCCC",
    "Result value": "inactive"
  }
]
